Molecular target: MERTK (UniProt Q12866)
Sequence (Q12866 whole entry, looked up): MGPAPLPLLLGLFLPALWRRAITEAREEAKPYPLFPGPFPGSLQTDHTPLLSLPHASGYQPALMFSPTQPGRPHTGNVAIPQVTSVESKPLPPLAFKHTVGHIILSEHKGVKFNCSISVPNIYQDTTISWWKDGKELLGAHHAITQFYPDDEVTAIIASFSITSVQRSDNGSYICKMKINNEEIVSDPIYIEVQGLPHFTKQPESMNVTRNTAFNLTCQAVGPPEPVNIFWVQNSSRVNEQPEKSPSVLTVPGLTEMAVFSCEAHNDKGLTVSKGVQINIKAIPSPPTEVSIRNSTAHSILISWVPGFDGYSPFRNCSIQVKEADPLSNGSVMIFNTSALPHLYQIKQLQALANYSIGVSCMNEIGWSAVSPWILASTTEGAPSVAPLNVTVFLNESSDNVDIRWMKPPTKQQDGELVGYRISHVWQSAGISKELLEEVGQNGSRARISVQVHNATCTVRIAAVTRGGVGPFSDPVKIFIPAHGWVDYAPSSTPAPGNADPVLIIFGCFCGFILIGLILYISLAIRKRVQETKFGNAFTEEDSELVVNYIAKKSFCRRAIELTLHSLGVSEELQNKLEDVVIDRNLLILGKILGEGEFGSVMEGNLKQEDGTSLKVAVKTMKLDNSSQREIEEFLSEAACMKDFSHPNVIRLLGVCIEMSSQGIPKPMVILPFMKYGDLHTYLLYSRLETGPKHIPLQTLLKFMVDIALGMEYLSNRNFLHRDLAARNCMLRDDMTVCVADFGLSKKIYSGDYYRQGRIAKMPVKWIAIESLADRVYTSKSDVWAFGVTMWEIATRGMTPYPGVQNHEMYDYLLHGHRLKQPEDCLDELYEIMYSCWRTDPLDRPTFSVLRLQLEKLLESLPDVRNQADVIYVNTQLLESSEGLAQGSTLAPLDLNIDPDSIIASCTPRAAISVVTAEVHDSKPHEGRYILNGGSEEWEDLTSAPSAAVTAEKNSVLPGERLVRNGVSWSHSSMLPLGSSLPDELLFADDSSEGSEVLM
Assay: phosphorylation enrichment, bacterial display (enrichment ratio); higher = better substrate or ligand; peptides without Tyr show the background;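 further: 11-residue human phosphosite peptides and single-mutation variants displayed on the E. coli surface, counted by deep sequencing, each peptide's frequency after selection divided by its frequency in the unselected input library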;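 further: frequency after pTyr selection over input frequency; kinase dosed for 20-30% of maximal phosphorylation in three min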
reportedEndpoint: phosphorylation enrichment
Answers are plain numbers.

Consider the following illustrative entries.
WASGIYFVPKG [APBB1IP_Y340_R335W_YF]; 9
RKPDIYGRLAS [MCM4_Y459_E460G]; 0.753
QNTVDYFDLFG [PTPN11_Y62_G60V_YF]; 0.646
KNRDVYSSDFF [USP24_Y2134_YF]; 3.39
CEAVEYLESKQ [BTK_Y511_M509V]; 0.384
THLAPYSDELR [APOA1_Y190]; 0.467
LQFRNYQQLFD [MAN2A1_Y442_K440R]; 0.789
IGERTYGQVFK [CDK13_Y716_G714R_YF]; 0.4

Quick request: phosphorylation enrichment for each listed item, please.
1. CTLSVYRQLHN [LUZP1_Y1036]
2. TYEPNYGTVKR [RAPGEF6_Y1447_Q1452R]
3. GSERDYTYDEL [EIF2S2_Y174_E177D]
4. IRTIDYRYTVC [IDS_Y497_W502C]
5. ISDNAYQFMLT [MYH7_Y162_YF]

Resp:
1: 0.435; 2: 0.868; 3: 0.424; 4: 0.478; 5: 0.883

----------
Test system: c-Abl (mouse)
Experiment: phosphorylation enrichment, bacterial display (enrichment ratio); higher = better substrate or ligand; peptides without Tyr show the background
Give measured phosphorylation enrichment for each item. Keep answers brief.
One number for each entry.

Consider the following illustrative entries.
IRGNMYFENSF [EGFR_Y112_YF]; 0.583
INNIDYYKNTT [FGFR2_Y656_K659N]; 0.574
LGKLIYPVGFW [NTHL1_Y177]; 1.27

Quick request: phosphorylation enrichment for each listed item, please.
1. SVVVPFEPPEV [TP53_Y220_Y220F]
2. VGTKRYMAPEV [ACVRL1_Y375]
3. YAADYYKLLGN [ROR2_Y646]
4. CSRRLYQLTKL [AR_Y858_F857L]
5. VSYDEYRYRSV [CFTR_Y515]
6. FQKNIYSEELR [LMNA_Y211]
7. SENPKYPEVGD [TMEM43_Y233]
8. EQKKYYNAVKK [SCN5A_Y1495_M1498V]

Resp:
0.866
0.532
0.769
0.728
0.667
1.04
0.822
0.511

Quick request: phosphorylation enrichment for each listed item, please.
1. MECLPYGSLRD [JAK2_Y934_Y931C]
2. MHFSNYVSKGS [PDGFRA_Y849_D846Y_YF]
3. FIIFIYAMKKK [SLCO1B1_Y645_L643F_YF]
4. PPAPRYHDSAV [LZTR1_Y119_H121D]
5. ADKAAYLQSMN [MYH2_Y389_L393M]
6. PQAVTYAKVKH [LILRB4_Y360]
7. SSTASYFKAPG [RFX2_Y108_E110K]
8. TSNQEYLDVSM [FGFR1_Y766_L769V]

Resp:
1. 0.75
2. 0.406
3. 1.52
4. 0.743
5. 0.591
6. 0.573
7. 0.418
8. 0.684

Quick request: phosphorylation enrichment for each listed item, please.
1. PDGHEYIFVDP [PDGFRA_Y572_YF]
2. PVKSEYSSIKL [NPC2_Y119_P120S]
3. GISDEYHVIQH [GCDH_Y398_R402Q]
4. PVEAAYQKVVA [HBB_Y131_Q128E]
5. KKKKQYKGKYL [CASK_Y708_D710G]
6. AESPEHVHMYT [FAM111A_Y511_Y511H]

Resp:
1. 0.466
2. 1.03
3. 0.641
4. 0.601
5. 0.529
6. 0.476

Quick request: phosphorylation enrichment for each listed item, please.
1. ERWLKYFPIEQ [HS3ST5_Y244]
2. CGTPEYRAPEI [PRKACA_Y205_L206R]
3. DWQQEYVLNES [TGM1_Y267_R264Q]
4. YDCGMYSHLQG [LGR4_Y848]

Resp:
[0.624, 3.88, 0.788, 2.38]

----------
Biological target: Fes (UniProt P07332)
Sequence (P07332 whole entry, looked up): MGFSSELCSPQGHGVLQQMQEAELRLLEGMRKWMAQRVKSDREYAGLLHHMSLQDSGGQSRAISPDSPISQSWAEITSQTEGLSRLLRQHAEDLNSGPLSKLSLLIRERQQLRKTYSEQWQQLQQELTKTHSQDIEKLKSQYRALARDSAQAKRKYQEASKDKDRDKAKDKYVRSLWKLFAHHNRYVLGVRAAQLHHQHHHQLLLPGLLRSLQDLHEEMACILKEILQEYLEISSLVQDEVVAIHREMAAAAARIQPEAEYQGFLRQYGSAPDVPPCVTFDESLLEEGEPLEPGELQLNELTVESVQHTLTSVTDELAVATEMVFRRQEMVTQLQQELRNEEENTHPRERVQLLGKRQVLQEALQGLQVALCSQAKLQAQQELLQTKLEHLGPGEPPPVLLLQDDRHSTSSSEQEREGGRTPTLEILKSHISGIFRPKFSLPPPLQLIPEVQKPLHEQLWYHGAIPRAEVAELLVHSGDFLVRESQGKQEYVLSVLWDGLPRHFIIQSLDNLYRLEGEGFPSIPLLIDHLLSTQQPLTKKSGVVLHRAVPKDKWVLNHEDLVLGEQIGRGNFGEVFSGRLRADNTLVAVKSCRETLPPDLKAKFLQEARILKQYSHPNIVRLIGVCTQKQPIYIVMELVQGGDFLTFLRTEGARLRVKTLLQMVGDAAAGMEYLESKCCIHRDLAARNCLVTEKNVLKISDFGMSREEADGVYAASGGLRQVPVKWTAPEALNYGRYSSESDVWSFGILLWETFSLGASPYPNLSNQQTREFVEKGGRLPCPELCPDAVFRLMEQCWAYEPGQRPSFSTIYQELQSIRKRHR
Assay: phosphorylation enrichment, bacterial display (enrichment ratio); higher = better substrate or ligand; peptides without Tyr show the background
reportedEndpoint: phosphorylation enrichment
Give bare numbers.

Consider the following illustrative entries.
KAFDMYSGDVM [FAM3D_Y122]; 0.732
MNPPPYSQFLS [FGF23_Y154]; 0.706
VNFDDYTVNLG [GFPT1_Y367]; 1.2

Quick request: phosphorylation enrichment for each listed item, please.
1. SVTCTYSPALI [TP53_Y126_N131I]
2. RELGKYGLQAY [ALDH2_Y497_E496K]
3. VVIMLYGVDSR [PKD1_Y3143_G3139V]
4. MKNDLYQTPLH [NFKB1_Y582_R578K]

Resp:
1.8
0.72
1.57
0.695

Quick request: phosphorylation enrichment for each listed item, please.
1. EQYELYCEMGS [CBL_Y371]
2. HTEGEYSSLEH [IDH3B_Y171_Q166H]

Resp:
[1.61, 1.09]

Quick request: phosphorylation enrichment for each listed item, please.
1. LNPFIYSLRNW [OR1A2_Y288]
2. QTSTDYDIRFF [CSNK2A1_Y131_L128S_YF]
3. HDHFGYRQSVT [CD55_Y245_R240H_YF]
4. RCYVYYYSYLL [PTEN_Y177_R173C]
5. EWLRRHLENGK [HLA-A_Y195_Y195H]
6. RLASVYTKRCS [CPT2_Y508_P504L]

Resp:
[1.73, 1.81, 0.896, 2, 0.811, 0.889]

Quick request: phosphorylation enrichment for each listed item, please.
1. DRLANYLEKVR [KRT40_Y103_S102N]
2. QNTVDYFDLFG [PTPN11_Y62_G60V_YF]
3. FADIAYNYRQG [PAH_Y166_H170Q]
4. RGVVMYTSKDR [ZG16B_Y136_M133V]
5. GACGGYCSVLG [RAB18_Y202]
6. LVMFISAIFGM [SCN1A_Y1684_Y1684S]
7. DMQTLYVNTAA [SMCHD1_Y403]
8. KHTLSFVDVGT [SDHA_Y629_Y629F]

Resp:
1: 0.74; 2: 1.44; 3: 0.872; 4: 0.865; 5: 0.77; 6: 2.05; 7: 0.588; 8: 0.691

----------
Target: Jak2 (UniProt O60674)
Sequence (O60674 whole entry, looked up): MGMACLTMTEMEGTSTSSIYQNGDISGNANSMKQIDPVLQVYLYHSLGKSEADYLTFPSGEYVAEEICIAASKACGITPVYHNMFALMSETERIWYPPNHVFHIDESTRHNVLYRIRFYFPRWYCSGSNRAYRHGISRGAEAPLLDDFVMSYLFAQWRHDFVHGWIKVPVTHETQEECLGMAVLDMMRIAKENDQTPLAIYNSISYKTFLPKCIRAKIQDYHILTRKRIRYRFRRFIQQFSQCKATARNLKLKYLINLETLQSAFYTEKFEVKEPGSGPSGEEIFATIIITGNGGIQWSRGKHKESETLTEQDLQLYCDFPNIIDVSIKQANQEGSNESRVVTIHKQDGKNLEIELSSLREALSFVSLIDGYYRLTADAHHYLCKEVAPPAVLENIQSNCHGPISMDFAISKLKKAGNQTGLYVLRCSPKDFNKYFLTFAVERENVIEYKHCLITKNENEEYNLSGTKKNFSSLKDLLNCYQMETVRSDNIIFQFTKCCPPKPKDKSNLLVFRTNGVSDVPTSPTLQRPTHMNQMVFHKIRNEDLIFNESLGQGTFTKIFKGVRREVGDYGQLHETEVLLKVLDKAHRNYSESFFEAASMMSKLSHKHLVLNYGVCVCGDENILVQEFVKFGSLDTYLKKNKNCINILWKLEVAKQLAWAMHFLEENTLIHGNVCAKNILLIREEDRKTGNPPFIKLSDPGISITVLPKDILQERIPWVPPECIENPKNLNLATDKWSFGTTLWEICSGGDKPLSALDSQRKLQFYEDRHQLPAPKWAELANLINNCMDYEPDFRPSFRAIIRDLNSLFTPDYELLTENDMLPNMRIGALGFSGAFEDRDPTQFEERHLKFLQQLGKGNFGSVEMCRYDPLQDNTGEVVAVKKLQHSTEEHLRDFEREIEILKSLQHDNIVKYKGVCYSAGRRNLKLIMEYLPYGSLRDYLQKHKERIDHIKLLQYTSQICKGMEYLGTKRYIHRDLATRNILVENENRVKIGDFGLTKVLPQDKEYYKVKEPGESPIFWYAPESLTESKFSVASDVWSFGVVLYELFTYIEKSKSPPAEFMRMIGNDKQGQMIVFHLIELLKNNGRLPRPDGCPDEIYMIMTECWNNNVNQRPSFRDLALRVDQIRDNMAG
Experiment: phosphorylation enrichment, bacterial display (enrichment ratio); higher = better substrate or ligand; peptides without Tyr show the background
# cutoff 0.7 applies to phosphorylation enrichment; >= gives T, < gives F

MFRAGYDTKQE [F10_Y407_C404R]; F
ISSLDYISKSK [VAV3_Y294_T298S]; T

Req: Would you say GRLGEYDIDEV [SMS_Y134_V132G] shows phosphorylation enrichment at minimum 0.7?
Resp: T

Req: Would you say PSRKDYETYQP [CTNND2_Y1154] shows phosphorylation enrichment at minimum 0.7?
Resp: F

Req: Would you say FFNSEYGELSE [FLT4_Y1337_YF] shows phosphorylation enrichment at minimum 0.7?
Resp: T

Req: Would you say MRAIIYNSSTA [PLEKHA7_Y243_L241I] shows phosphorylation enrichment at minimum 0.7?
Resp: T

Req: Would you say ASSPVYVPTTR [GATA6_Y188] shows phosphorylation enrichment at minimum 0.7?
Resp: F

----------
Biological target: FGFR3 (UniProt P22607)
Sequence (P22607 whole entry, looked up): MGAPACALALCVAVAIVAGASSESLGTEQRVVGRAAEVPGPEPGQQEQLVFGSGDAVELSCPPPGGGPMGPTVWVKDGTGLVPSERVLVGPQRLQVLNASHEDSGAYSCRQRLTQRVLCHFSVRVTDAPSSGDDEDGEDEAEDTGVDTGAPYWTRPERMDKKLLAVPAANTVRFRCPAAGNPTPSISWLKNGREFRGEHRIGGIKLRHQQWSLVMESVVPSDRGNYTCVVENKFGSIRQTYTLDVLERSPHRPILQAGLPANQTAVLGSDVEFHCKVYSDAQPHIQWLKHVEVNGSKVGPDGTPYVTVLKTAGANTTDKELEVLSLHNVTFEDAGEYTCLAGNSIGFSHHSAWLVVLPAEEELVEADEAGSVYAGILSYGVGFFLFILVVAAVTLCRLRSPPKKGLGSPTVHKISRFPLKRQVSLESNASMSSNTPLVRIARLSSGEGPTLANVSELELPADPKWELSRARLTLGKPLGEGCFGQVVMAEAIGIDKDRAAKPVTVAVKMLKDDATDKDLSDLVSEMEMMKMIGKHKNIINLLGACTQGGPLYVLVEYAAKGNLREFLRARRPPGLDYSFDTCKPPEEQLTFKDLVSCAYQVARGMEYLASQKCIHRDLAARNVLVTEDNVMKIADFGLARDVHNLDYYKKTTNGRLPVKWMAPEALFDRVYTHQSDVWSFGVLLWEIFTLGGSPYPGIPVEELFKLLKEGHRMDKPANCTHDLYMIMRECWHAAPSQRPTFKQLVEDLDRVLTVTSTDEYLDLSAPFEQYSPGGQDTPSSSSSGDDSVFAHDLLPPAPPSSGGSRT
Test: phosphorylation enrichment, bacterial display (enrichment ratio); higher = better substrate or ligand; peptides without Tyr show the background
Categories are assigned from the measured phosphorylation enrichment using these intervals: b0 = under 0.7, b1 = from 0.7 up to 1, b2 = 1 and over

Reference set (10 entries):
VATRWYQSPEL [CDKL5_Y177_R178Q]; b1
SHNELYFEAAE [VANGL1_Y344_E347A_YF]; b2
NKFTTYLPWLP [C9orf24_Y126_R129W_YF]; b2
DSSIRYLQEIF [FGG_Y135_YF]; b0
GKSHIYFWTLD [EML2_Y230_E235D]; b2
YQNGMYGLHQD [SGSH_Y89_H84Y]; b0
PLQKIYNYNVL [SLC4A1_Y553_T552I]; b2
HEKKVYSFCGT [RPS6KA3_Y226_A225V]; b1
PPPELYFVKVD [TERT_Y707]; b2
ERLWDYGMSSS [F8_Y1728]; b1

Now let's try a different one.
Req: Categorize the following entry: WQQQSYLDSEI [CTNNB1_Y30_G34E]
Resp: b0

----------
Give measured phosphorylation enrichment for each item. Keep answers brief.
Molecular target: EPHB1 (UniProt P54762)
Sequence (P54762 whole entry, looked up): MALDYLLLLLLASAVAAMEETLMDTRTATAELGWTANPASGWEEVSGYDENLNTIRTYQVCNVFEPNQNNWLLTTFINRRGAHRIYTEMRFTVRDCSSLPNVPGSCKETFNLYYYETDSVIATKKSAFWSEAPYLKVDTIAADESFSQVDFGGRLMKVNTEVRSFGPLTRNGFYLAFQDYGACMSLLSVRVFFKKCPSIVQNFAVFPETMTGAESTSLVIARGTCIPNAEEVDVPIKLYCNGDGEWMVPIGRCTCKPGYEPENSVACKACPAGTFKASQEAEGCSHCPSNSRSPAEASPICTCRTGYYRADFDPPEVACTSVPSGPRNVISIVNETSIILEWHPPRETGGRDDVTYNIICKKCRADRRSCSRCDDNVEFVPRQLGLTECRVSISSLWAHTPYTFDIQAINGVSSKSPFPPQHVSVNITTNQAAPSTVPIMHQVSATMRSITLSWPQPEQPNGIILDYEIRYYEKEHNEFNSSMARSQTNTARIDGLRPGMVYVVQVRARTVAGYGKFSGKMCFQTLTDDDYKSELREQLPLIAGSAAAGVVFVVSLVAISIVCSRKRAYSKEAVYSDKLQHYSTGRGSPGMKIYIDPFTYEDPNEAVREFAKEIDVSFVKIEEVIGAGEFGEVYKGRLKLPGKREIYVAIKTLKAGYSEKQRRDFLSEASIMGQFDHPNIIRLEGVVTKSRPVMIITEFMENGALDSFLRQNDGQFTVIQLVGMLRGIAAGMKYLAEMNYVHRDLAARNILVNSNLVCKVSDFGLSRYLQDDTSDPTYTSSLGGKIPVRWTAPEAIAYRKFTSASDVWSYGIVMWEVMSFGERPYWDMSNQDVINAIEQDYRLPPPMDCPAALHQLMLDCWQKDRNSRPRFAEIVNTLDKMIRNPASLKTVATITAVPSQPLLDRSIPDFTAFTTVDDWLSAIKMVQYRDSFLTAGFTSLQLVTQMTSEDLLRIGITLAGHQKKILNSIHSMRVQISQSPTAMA
Test: phosphorylation enrichment, bacterial display (enrichment ratio); higher = better substrate or ligand; peptides without Tyr show the background
Answers are plain numbers.

Consider the following illustrative entries.
CSRRFYQLTKL [AR_Y858]; 0.407
CGTPTYLAPEV [CHEK2_Y390]; 1.18
NVDGKYSYLKV [GRM3_Y478_G475D]; 0.569
DLAHKYHGGGG [HBB_Y146_A141D]; 0.333
ADRSCYDLSCR [GARS1_Y467_H472R]; 0.487
YKWAVYCIIGR [NUP93_Y391_R388W]; 3.37
YGGLRCGYGVL [KRTAP20-2_Y13_Y13C]; 0.623
HCEDGYPGGSD [CTNND1_Y221_Y217C]; 1.03
ASSPVYVPTTR [GATA6_Y188]; 0.397
LGRTRYQHVTG [MIPEP_Y510]; 0.439

Quick request: phosphorylation enrichment for each listed item, please.
1. SYDLDYDSVQP [MYC_Y16_N11S]
2. RRAKGYPINLF [ITGB2_Y125_D128N_YF]
3. AAVNGYVFGGG [ECHS1_Y137_A138V]
4. KFDLMYAKHAF [TUBA1A_Y399_R402H]
5. QGIPRYHSQSP [FOXF1_Y331]

Resp:
1: 1.03; 2: 0.576; 3: 0.419; 4: 0.521; 5: 0.783
